SYSTEM_NAME: human ClpP (Homo sapiens, UniProt Q16740)
Sequence (Q16740 57-277): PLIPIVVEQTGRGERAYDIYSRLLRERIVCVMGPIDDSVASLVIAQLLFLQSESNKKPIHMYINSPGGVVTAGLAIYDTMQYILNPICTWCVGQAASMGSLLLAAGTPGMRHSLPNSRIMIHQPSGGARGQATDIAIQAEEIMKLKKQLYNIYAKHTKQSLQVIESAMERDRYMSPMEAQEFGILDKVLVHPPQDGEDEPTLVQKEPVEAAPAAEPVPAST
ASSAY_TEXT: Casein-FITC degradation assay
Format: biochemical
DETAILS: Hill coefficient, 2.5 μM ClpP protomer
READOUT: Casein-FITC degradation h (at 2.5 μM ClpP)

| TEST_SMILES | SYSTEM_NAME | RESULT |
| --- | --- | --- |
| N#Cc1cccc(CN2CCc3ncn(Cc4ccc(Cl)cc4)c(=O)c3C2)c1 | human ClpP (Homo sapiens, UniProt Q16740) | 5.5 |
| N#Cc1cccc(CN2CCC3=C(C2)C(=O)N(Cc2ccc(Cl)cc2)C2=NCCN23)c1 | human ClpP (Homo sapiens, UniProt Q16740) | 10.9 |
| N#Cc1cccc(CN2CCc3ncn(Cc4ccc(Br)cc4)c(=O)c3C2)c1 | human ClpP (Homo sapiens, UniProt Q16740) | 6.2 |
| Cn1c2c(c(=O)n(Cc3ccc(Cl)cc3)c1=O)CN(Cc1cccc(C#N)c1)CC2 | human ClpP (Homo sapiens, UniProt Q16740) | 9.4 |
| C#Cc1cccc(CN2CCC3=C(C2)C(=O)N(Cc2ccc(Cl)cc2)C2=NCCN23)c1 | human ClpP (Homo sapiens, UniProt Q16740) | 8.1 |

====

Below, each entry is listed with its recorded Kd.
SYSTEM_NAME: human ClpP (Homo sapiens, UniProt Q16740)
ASSAY_TEXT: Casein-FITC degradation assay

| TEST_SMILES | UNIT_LABEL | Kd |
| --- | --- | --- |
| N#Cc1cccc(CN2CCc3ncn(Cc4ccc(Br)cc4)c(=O)c3C2)c1 | nM | 29.1 |
| Cn1c2c(c(=O)n(Cc3ccc(Cl)cc3)c1=O)CN(Cc1cccc(C#N)c1)CC2 | nM | 15.5 |
| N#Cc1cccc(CN2CCC3=C(C2)C(=O)N(Cc2ccc(Cl)cc2)C2=NCCN23)c1 | nM | 23.3 |

====

Tested on: HEK293 T-REx WT cells
ASSAY_TEXT: Growth inhibition profiling
Type: cell-based, human
DETAILS: read-out: IC50 (nM), HEK293 T-REx WT; 72 hr, SRB assay

| TEST_SMILES | IC50 |
| --- | --- |
| N#Cc1cccc(CN2CCc3ncn(Cc4ccc(Cl)cc4)c(=O)c3C2)c1 | 22.8 nM |
| C#Cc1cccc(CN2CCC3=C(C2)C(=O)N(Cc2ccc(Cl)cc2)C2=NCCN23)c1 | 46.1 nM |

Values from paper PMC9898158
